Target: MNK1a (pre-activated GST-MNK1a) (Homo sapiens (Human))
Assay: MNK1 in vitro kinase assay (assay 2), Z'-LYTE
Type: biochemical
Settings: compound concentration of 1 μM, read-out: Mnk1 % Inh
parameterMeasured: inhibition at 1 µM (%)
Give the quantity in %, number only.

Past entries and their recorded results:
{"molecule": "COc1c(N=S(C)(C)=O)cc2ncnc(Nc3ccc(F)cc3O[C@H](C)C(F)(F)F)c2c1C", "inhibition at 1 µM / %": 102}
{"molecule": "COc1c(N=S(C)(C)=O)cc2ncnc(Nc3ccc(F)cc3O[C@H]3CC[C@H](O)CC3)c2c1C", "inhibition at 1 µM / %": 98}
{"molecule": "COc1c(N=S2(=O)CC(OC)C2)cc2ncnc(Nc3ccc(F)cc3O[C@H](C)C(=O)NCC(F)(F)F)c2c1C (stereo partly shown)", "inhibition at 1 µM / %": 103}
{"molecule": "COc1c(N=S2(=O)CCCC2)cc2ncnc(Nc3cccnc3O[C@@H]3CO[C@@H]4CCO[C@@H]43)c2c1C", "inhibition at 1 µM / %": 96}
{"molecule": "COc1c(N=S2(=O)CCCCC2)cc2ncnc(Nc3ccc(F)cc3O[C@@H]3CO[C@@H]4CCO[C@@H]43)c2c1C", "inhibition at 1 µM / %": 107}

Asked: What inhibition at 1 µM value was documented for this molecule, `Cc1c(O)c(N=S(C)(C)=O)cc2ncnc(Nc3ccc(F)cc3O[C@H](C)C(F)(F)F)c12` ?
Given back: 77

Asked: What about `COc1c(N=S2(=O)CCCC2)cc2ncnc(Nc3ccc(F)cc3O[C@H](C)C(=O)N[C@@H](C)C(F)(F)F)c2c1C` ?
Given back: 106

----------
Biological target: MNK2a (pre-activated GST-MNK2a) (Homo sapiens (Human), UniProt Q9HBH9)
Sequence (Q9HBH9 whole entry): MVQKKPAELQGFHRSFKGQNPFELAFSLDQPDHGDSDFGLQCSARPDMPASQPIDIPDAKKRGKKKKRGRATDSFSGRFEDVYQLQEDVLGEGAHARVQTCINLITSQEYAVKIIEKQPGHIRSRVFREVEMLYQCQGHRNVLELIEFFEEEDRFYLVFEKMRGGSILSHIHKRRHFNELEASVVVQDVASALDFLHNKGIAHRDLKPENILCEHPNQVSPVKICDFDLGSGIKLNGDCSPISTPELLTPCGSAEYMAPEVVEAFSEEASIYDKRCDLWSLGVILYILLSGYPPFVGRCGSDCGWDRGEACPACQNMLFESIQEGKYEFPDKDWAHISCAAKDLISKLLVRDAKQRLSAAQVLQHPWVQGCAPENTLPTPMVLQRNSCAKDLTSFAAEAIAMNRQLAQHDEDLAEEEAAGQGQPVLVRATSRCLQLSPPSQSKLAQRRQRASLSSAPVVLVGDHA
Test: MNK2a in vitro kinase assay (assay 1), ADP-Glo
Details: read-out: Mnk2 IC50
parameterMeasured: IC50 (nM)
Give the quantity in nM, number only.

Past entries and their recorded results:
{"compound": "COc1c(N=S2(=O)CCCC2)cc2ncnc(Nc3ccc(F)cc3O[C@@H]3CO[C@@H]4CCO[C@@H]43)c2c1Cl [Example 2.33]", "IC50, nM": 1.6}
{"compound": "COc1c(N=S2(=O)CCC2)cc2ncnc(Nc3ccc(F)cc3O[C@H](C)C(=O)NCC(F)(F)F)c2c1C [Example 2.11]", "IC50, nM": 1.9}
{"compound": "COc1c(N=S2(=O)CCC(O)CC2)cc2ncnc(Nc3ccc(F)cc3O[C@@H]3CO[C@@H]4CCO[C@@H]43)c2c1C (some centres unmarked) [Example 2.04]", "IC50, nM": 1.2}

Now consider the entry below.
Asked: What IC50 value was documented for this compound, Cc1c(OCC2CC2)c(N=S(C)(C)=O)cc2ncnc(Nc3ccc(F)cc3O[C@H](C)C(F)(F)F)c12 [Example 3.01] ?
Given back: 3.3

----------
List of inhibition at 1 µM values.
Target: MNK1a (pre-activated GST-MNK1a) (Homo sapiens (Human), UniProt Q9BUB5)
Sequence (Q9BUB5 other isoform, or with tags, fused parts or gaps): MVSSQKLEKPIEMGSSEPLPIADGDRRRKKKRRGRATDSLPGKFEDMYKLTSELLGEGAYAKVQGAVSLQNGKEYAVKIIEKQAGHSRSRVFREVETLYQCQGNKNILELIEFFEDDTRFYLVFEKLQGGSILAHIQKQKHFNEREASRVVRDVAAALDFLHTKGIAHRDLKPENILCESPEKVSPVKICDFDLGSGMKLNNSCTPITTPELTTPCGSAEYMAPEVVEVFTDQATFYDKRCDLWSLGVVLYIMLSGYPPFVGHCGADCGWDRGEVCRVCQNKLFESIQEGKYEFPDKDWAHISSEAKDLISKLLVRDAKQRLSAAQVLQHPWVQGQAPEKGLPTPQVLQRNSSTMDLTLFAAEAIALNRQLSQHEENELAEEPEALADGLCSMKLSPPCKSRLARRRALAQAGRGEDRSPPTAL
Experiment: MNK1 in vitro kinase assay (assay 2), Z'-LYTE
Type: biochemical
Conditions: compound concentration of 1 μM, read-out: Mnk1 % Inh
Give the quantity in %, number only.

{"compound": "COc1c(N=S(C)(C)=O)cc2ncnc(Nc3ccc(Cl)cc3O[C@H](C)C(=O)NCC(F)(F)F)c2c1C [Example 2.29]", "observedMeasurement": 96}

Asked: What inhibition at 1 µM value was documented for this compound, COc1c(N=S(C)(=O)C2CCOCC2)cc2ncnc(Nc3ccc(F)cc3O[C@@H]3CO[C@@H]4CCO[C@@H]43)c2c1C (stereo partly drawn) [Example 2.12] ?
Given back: 95

Asked: What about COc1c(N=S(C)(=O)C(C)(C)C)cc2ncnc(Nc3ccc(F)cc3O[C@@H]3CO[C@@H]4CCO[C@@H]43)c2c1C (stereo partly drawn) [Example 2.19] ?
Given back: 102

Asked: What about COc1c(N=S2(=O)CCCC2)cc2ncnc(Nc3ccc(F)cc3O[C@@H]3CO[C@@H]4CCO[C@@H]43)c2c1C [Example 2.03] ?
Given back: 105

Asked: What about COc1c(N=S(C)(C)=O)cc2ncnc(Nc3ccc(F)cc3O[C@H](C)C(=O)NCC(F)(F)F)c2c1C [Example 2.24] ?
Given back: 100

Asked: What about COc1c(N=S2(=O)CCC2)cc2ncnc(Nc3ccc(F)cc3O[C@@H]3CO[C@H]4[C@@H]3OC[C@H]4OC)c2c1Cl [Example 2.18] ?
Given back: 95

----------
List of pIC50 values.
Molecular target: MNK1a (pre-activated GST-MNK1a) (Homo sapiens (Human), UniProt Q9BUB5)
Test: MNK1 in vitro kinase assay (assay 2), Z'-LYTE
The meaning of pIC50 here: minus log10 of the concentration in molar units.

Past entries and their recorded results:
{"sampleSmiles": "COc1c(N=S(C)(C)=O)cc2ncnc(Nc3ccc(F)cc3O[C@H](C)C(=O)NCC(F)(F)F)c2c1Cl", "pIC50": 7.55}
{"sampleSmiles": "COc1c(N=S(C)(C)=O)cc2ncnc(Nc3ccc(F)cc3O[C@@H]3CO[C@H]4[C@@H]3OC[C@H]4OC)c2c1C", "pIC50": 7.77}
{"sampleSmiles": "Cc1c(OC(C)C)c(N=S(C)(C)=O)cc2ncnc(Nc3ccc(F)cc3O[C@H](C)C(F)(F)F)c12", "pIC50": 6.55}
{"sampleSmiles": "COc1c(N=S(C)(C)=O)cc2ncnc(Nc3ccc(F)cc3O[C@H]3CCOC3)c2c1C", "pIC50": 7.36}

Asked: What pIC50 value was documented for this compound, `COc1c(N=S2(=O)CCC2)cc2ncnc(Nc3ccc(F)cc3O[C@H]3CC[C@H](O)CC3)c2c1C` ?
Given back: 7.42

----------
Molecular target: MNK2a (pre-activated GST-MNK2a) (Homo sapiens (Human))
Assay: MNK2a in vitro kinase assay (assay 1), ADP-Glo
Details: read-out: Mnk2 IC50
Response field label: string, one of yes (1) (IC50 strictly below 2 nM) or no (0).

{"compound": "COc1c(N=S2(=O)CC(OC)C2)cc2ncnc(Nc3ccc(F)cc3O[C@H](C)C(=O)NCC(F)(F)F)c2c1C (stereo partly shown) [Example 2.01]", "assignedLabel": "no (0)"}
{"compound": "COCCOc1c(N=S(C)(C)=O)cc2ncnc(Nc3ccc(F)cc3O[C@H](C)C(F)(F)F)c2c1C [Example 3.02]", "assignedLabel": "no (0)"}
{"compound": "COc1c(N=S(C)(C)=O)cc2ncnc(Nc3ccc(F)cc3O[C@H](C)C(F)(F)F)c2c1C [Example 2.16]", "assignedLabel": "no (0)"}

Asked: hey, is IC50 for COc1c(N=S2(=O)CCC2)cc2ncnc(Nc3ccc(F)cc3O[C@@H]3CO[C@H]4[C@@H]3OC[C@H]4O)c2c1C [Example 2.06] lower than 2 nM or not?
Given back: yes (1)

Asked: What about COc1c(N=S2(=O)CCC2)cc2ncnc(Nc3ccc(Cl)cc3O[C@H](C)C(=O)NCC(F)(F)F)c2c1C [Example 2.39] ?
Given back: no (0)

Asked: What about COc1c(N=S2(=O)CCC2)cc2ncnc(Nc3ccc(F)cc3O[C@@H]3CO[C@@H]4CCO[C@@H]43)c2c1Cl [Example 2.59] ?
Given back: yes (1)

----------
Target: MNK2a (pre-activated GST-MNK2a) (Homo sapiens (Human))
Experiment: MNK2a in vitro kinase assay (assay 1), ADP-Glo
Details: read-out: Mnk2 IC50
parameterMeasured: IC50 (nM)
Give the quantity in nM, number only.

Past entries and their recorded results:
{"sampleSmiles": "COc1c(N=S2(=O)CCC2)cc2ncnc(Nc3ccc(F)cc3O[C@@H]3CO[C@H]4[C@@H]3OC[C@@H]4F)c2c1C", "observedMeasurement": 1}
{"sampleSmiles": "COc1c(N=S(C)(C)=O)cc2ncnc(Nc3ccc(F)cc3OC3CCOCC3)c2c1Cl", "observedMeasurement": 2}
{"sampleSmiles": "COc1c(N=S(C)(C)=O)cc2ncnc(Nc3ccc(F)cc3O[C@H](C)C(=O)NCC(F)(F)F)c2c1C", "observedMeasurement": 4.4}

Asked: Lab note: need IC50 with MNK2a (pre-activated GST-MNK2a) (Homo sapiens (Human)) for entry `Cc1c(OCCCN2CCOCC2)c(N=S2(=O)CCC2)cc2ncnc(Nc3ccc(F)cc3O[C@H](C)C(F)(F)F)c12` , please look it up.
Given back: 1.4

Asked: What about `COc1c(N=S(C)(C)=O)cc2ncnc(Nc3ccc(F)cc3O[C@@H]3CO[C@@H]4CCO[C@@H]43)c2c1Cl` ?
Given back: 1.3

Asked: What about `COc1c(N=S2(=O)CCC2)cc2ncnc(Nc3ccc(F)cc3O[C@H](C)C(F)(F)F)c2c1C` ?
Given back: 1.5

Asked: What about `COc1c(N=S2(=O)CCCC2)cc2ncnc(Nc3ccc(F)cc3O[C@H]3CC[C@H](O)CC3)c2c1C` ?
Given back: 1.4
